pIC50: −log10 of the molar value.
Literature survey of pIC50 (system: Platelet-derived growth factor receptor beta (Homo sapiens, UniProt P09619)).

Incoming: Given the entry Cc1cncc(C(=O)Nc2ccc(F)c([C@H](C)Nc3cnc4cn(CC5CNCCO5)nc4n3)c2)c1 (stereo partly shown) , what pIC50 was observed with Platelet-derived growth factor receptor beta (Homo sapiens, UniProt P09619)?
Outgoing: > 6.52

Incoming: # query: pIC50 | item Cn1cc(-c2cc(Oc3cc(F)c(NC(=O)NC(=O)Cc4ccc(F)cc4)cc3Cl)ccn2)cn1 | system: Platelet-derived growth factor receptor beta (Homo sapiens, UniProt P09619)
Outgoing: > 6.70

Incoming: Please state recorded pIC50 (tested on Platelet-derived growth factor receptor beta (Homo sapiens, UniProt P09619)) of CCn1cc2ncc(N[C@@H](C)c3cc(NC(=O)Cc4cnc(C5CC5)c(F)c4)ccc3C)nc2n1
Outgoing: 6.00 to 6.52

Incoming: // lookup pIC50 | system=Platelet-derived growth factor receptor beta (Homo sapiens, UniProt P09619) | key= CCn1cc2ncc(N[C@@H](C)c3cccc(NC(=O)Nc4cnn(C(C)C)c4)c3)nc2n1
Outgoing: 6.00 to 6.52

Incoming: Hi! What's the reported pIC50 for Cc1c[nH]c2ncc(N[C@@H](C)c3cccc(NC(=O)c4cncc(Cl)c4)c3)nc12 on Platelet-derived growth factor receptor beta (Homo sapiens, UniProt P09619)?
Outgoing: > 6.52

Incoming: I'm curious: which pIC50 was measured for Cc1ncc(C(=O)N[C@H]2CCCC[C@@H]2O)cc1/C=C(\F)c1cncc(NC2COC2)c1 tested on Platelet-derived growth factor receptor beta (Homo sapiens, UniProt P09619)?
Outgoing: 7.72

Incoming: Platelet-derived growth factor receptor beta (Homo sapiens, UniProt P09619) / pIC50 / O=C(CCCCCCC(=O)NCc1cc(Oc2ccc(NC(=O)Nc3ccc(Cl)c(C(F)(F)F)c3)cc2)ccn1)NO : value?
Outgoing: 6.00 to 7.00

----------
IC50 values for Platelet-derived growth factor receptor beta (Homo sapiens, UniProt P09619), compiled from several publications.

Cc1cnc(Nc2ccc(C(=O)NCCN3CCOCC3)cc2)nc1Nc1ccc2cn[nH]c2c1 ... 19 nM
CCn1cc2ncc(N[C@@H](C)c3cc(NC(=O)Cc4ccc(C)cn4)ccc3C)nc2n1 ... 300 to 1000 nM
CCn1cc2ncc(N[C@@H](C)c3cccc(NC(=O)c4cnc(NC5CCOCC5)c(C)c4)c3)nc2n1 ... ≥ 1000 nM
CCn1cc2ncc(N[C@@H](C)c3cccc(NC(=O)c4ccc(N5CCNCC5)nc4)c3)nc2n1 ... ≥ 1000 nM
Cc1cncc(C(=O)Nc2cccc([C@H](C)Nc3cnc4[nH]nc(C)c4n3)c2)c1 ... < 300 nM

Incoming: Query: IC50; subject: Cc1ccc(C(=O)N[C@H]2CCCC[C@@H]2O)cc1NCc1cnc(NC2CCOCC2)nc1
Outgoing: 72 nM

Incoming: GET /values?readout=IC50&item= CCn1cc2ncc(N[C@@H](C)c3cc(NC(=O)c4ccc(CN5CCOCC5)c(C)c4)ccc3F)nc2n1
Outgoing: < 300 nM

Incoming: Consider the molecule shown here: Cc1ncc(C(=O)N[C@H]2CCCC[C@@H]2O)cc1/C=C(\F)c1ccc(NCC2CC2)nc1 What is its recorded IC50?
Outgoing: 52 nM
